B1: TPR t1 (parent)
chain: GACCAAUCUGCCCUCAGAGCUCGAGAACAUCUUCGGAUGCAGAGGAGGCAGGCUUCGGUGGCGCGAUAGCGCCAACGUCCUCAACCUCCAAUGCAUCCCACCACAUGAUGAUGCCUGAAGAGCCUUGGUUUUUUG

Variants of: B1
measurement.protocol: polymerase ribozyme fitness, log enrichment relative to wild type (log ratio); higher = more active; in vitro selection for triplet polymerase activity
Criterion: polymerase ribozyme fitness (log ratio) meeting or surpassing -1. Met: Criterion met. Not met: Criterion not met.

Item A90U U106A with polymerase ribozyme fitness (log ratio) of -1 or above? Criterion not met

Do the same for G45U C97A U112A please Criterion not met

Do the same for G48C C62U C64U C97U A100U C123A please Criterion not met

Do the same for A37C C40U C53U G63U C123G U133C please Criterion met

Do the same for A2G A91U please Criterion not met

Do the same for U21A A29G please Criterion not met

Do the same for A46U C53A A111U please Criterion not met

Do the same for G107A U112C please Criterion not met

Do the same for C56G G93A A95G G113A G120C please Criterion not met

Do the same for C3A G57A C114U please Criterion not met

Do the same for C20G C53A please Criterion not met

Do the same for G42U G93U A118G please Criterion not met

Do the same for G42U G58C G63A C82G U87C please Criterion not met

Do the same for C11U C102U please Criterion not met

Do the same for G44A C104U please Criterion met

Do the same for A43G U130C please Criterion not met

Do the same for A91G G113U please Criterion not met

Do the same for U9A G47U A50C please Criterion not met

Do the same for U55G A95U A111C A121U G127C please Criterion met

Do the same for C8G C89A A105C please Criterion not met

Do the same for C64U U96C please Criterion met

Do the same for C22G A90G please Criterion not met

Do the same for U87A G93A please Criterion met

Do the same for G35A C99A C123A please Criterion not met

Do the same for U7G G63U C88U G93C please Criterion not met

Do the same for C15G C49G U106C C124U please Criterion not met

Do the same for A74U U116G U133G please Criterion not met

Do the same for G44A A100C G110A please Criterion not met

Do the same for A29G G42C please Criterion not met

Do the same for G57U G122A please Criterion not met

Do the same for C8A C12A C85U please Criterion met

Do the same for A5U G44C C73U please Criterion not met

Do the same for C8U A50U A75U U130A please Criterion not met

Do the same for G25A A121U please Criterion not met

Do the same for U9A G107U G117C please Criterion not met

Do the same for C49U G60C please Criterion met

Do the same for C13U C62U please Criterion met

Do the same for A26G G42C C72A please Criterion not met

Do the same for U38G A105C U112A G122C please Criterion not met

Do the same for G48U C49A C115U U133C please Criterion not met

Do the same for A5U G44A A74U C82G U87G please Criterion not met

Do the same for A46U C115A please Criterion not met

Do the same for G23A A50U G61U G71C A100C A105C U116C U125A G128U please Criterion not met

Do the same for C94U U125A please Criterion met

Do the same for C13U A50G C70U C79U C86G G117A please Criterion not met

Do the same for G36U A50U A118U please Criterion not met

Do the same for G44A G60U please Criterion met

Do the same for A5C C73G C102A please Criterion not met

Do the same for A6G A121U U125G please Criterion met

Do the same for G69A A84U please Criterion not met

Do the same for G42U C73A please Criterion not met

Do the same for A2G C4G C8G G47U U54C C72A please Criterion not met

Do the same for C62G U87A please Criterion not met

Do the same for C12A G17U U96A G120U please Criterion not met

Do the same for U21C G48C A90U G117C G127C please Criterion not met

Do the same for C70G C114U please Criterion not met

Do the same for G61U U116A please Criterion not met

Do the same for C97U U133A please Criterion met

Do the same for C13G C94A C101G C123G please Criterion not met

Do the same for C53G G77C please Criterion met

Do the same for G52C C70U U106A please Criterion not met

Do the same for C8U A29U A37U U116C please Criterion not met

Do the same for C3U U9A please Criterion met

Do the same for G61C G77U U112A please Criterion not met

Do the same for C15A C53A G77A C101G G120A C124A please Criterion not met

Do the same for U96A C104U C124U please Criterion met

Do the same for G44U G58C please Criterion met

Do the same for C70A U112C please Criterion met

Do the same for G71A U112C please Criterion met

Do the same for G48U A100C A105C C123U please Criterion not met

Do the same for U7C C49U A50C G60U G127A please Criterion met

Do the same for A18U C34U G61C A74C A100C G107U G110C please Criterion not met

Do the same for C11U G69C please Criterion not met

Do the same for C72G C86A G93C C104G A108U U109G A118G please Criterion not met

Do the same for G60A G93U U112C G113U please Criterion not met

Do the same for A37G G60U C72G C99A A103G C114U U129C please Criterion not met

Do the same for C12G A37C G60C A83U A91C G120U please Criterion met

Do the same for A46U G52A U109C C124G please Criterion not met

Do the same for C123G G127A please Criterion met

Do the same for G51U G71A C85A C101U please Criterion not met

Do the same for A37C A50C please Criterion met

Do the same for A50U U131A please Criterion met

Do the same for C79A A83U please Criterion not met

Do the same for G107U C114A please Criterion not met

Do the same for A46C G113A G128A please Criterion not met

Do the same for `A27C` please Criterion not met

Do the same for A43U A50U G60A U112A please Criterion not met

Do the same for A27C C124G please Criterion met

Do the same for C8U G71A C88U please Criterion met
